Some proteins, each annotated with its measured Proxy for plastic degradation.
- Substrate: PEF
- MEASUREMENT_DESCRIPTION: Proxy for plastic degradation [kcat] (s⁻¹)
- CONDITION_DETAILS: pH 9
Give the figure by itself; no unit, no explanation.

As a guide, the following entries are already answered.
{"PROTEIN": "unnamed (protein) MDGVLWRVRTAALMAALLALAAWALWASPSVEAQSNPYQRGPNPTRSALTADGPFSVATYTVSRLSVSGFGGVIYYPTGTSLTFGGIAMSPGYTADASSLAWLGRRLASHGFVVLVINTNSRFDYPDSRASQLSAALNYLRTSSPSAVRARLDANRLAVAGHSMGGGGTLRIAEQNPSLKAAVPLTPWHTDKTFNTSVPVLIVGAEADTVAPVSQHAIPFYQNLPSTTPKVYVELDNASHSAPNSNNAAISVYTISWMKLWVDNDTRYRQFLCNVNDPALSDFRTNNRHCQCQ", "Proxy for plastic degradation": 0.085}
{"PROTEIN": "unnamed (protein) MDGVLWRVRTAALMAALLALAAWALWASPSVEAQSNPYQRGPNPTRSALTADGPFSVATYTVSRLSVSGFGGVIYYPTGTSLTFGGIAMSPGYTADASSLAWLGRRLASHGFVVLVINTNSRFDYPDSRASQLSAALNYLRTSSPSAVRARLDANRLAVAGHSMGGGGTLRIAEQNPSLKAAVPLTPWHTDKTFNTSVPVLIVGAEADTVAPVSQHAIPFYQNLPSTTPKVYVELDNASHFAPNSNNAAISVYTISWMKLWVDNDTRYRQFLCNVNDPALSDFRTNNRHCQCQ", "Proxy for plastic degradation": 0.005}

Task item: Report Proxy for plastic degradation for unnamed (protein) MDGVLWRVRTAALMAALLALAAWALWASPSVEAQSNPYQRGPNPTRSALTADGPFSVATYTVSRLSVSGFGGVIYYPTGTSLTFGGIAMSPGYTADASSLAWLGRRLASHGFVVLVINTNSRFDYPDSRASQLSAALNYLRTSSPSAVRARLDANRLAVAGWSMGGGGTLRIAEQNPSLKAAVPLTPWHTDKTFNTSVPVLIVGAEADTVAPVSQHAIPFYQNLPSTTPKVYVELDNASHSAPNSNNAAISVYTISWMKLWVDNDTRYRQFLCNVNDPALSDFRTNNRHCQCQ
Reply: 0.0175

Task item: Note Proxy for plastic degradation for the protein shown: unnamed (protein) MDGVLWRVRTAALMAALLALAAWALWASPSVEAQSNPYQRGPNPTRSALTADGPFSVATYTVSRLSVSGFGGVIYYPTGTSLTFGGIAMSPGYTADASSLAWLGRRLASHGFVVLVINTNSRFDYPDSRASQLSAALNYLRTSSPSAVRARLDANRLAVAGWSMGGGGTLRIAEQNPSLKAAVPLTPWHTDKTFNTSVPVLIVGAEADTVAPVSQHAIPFYQNLPSTTPKVYVELDNASHFAPNSNNAAISVYTISWMKLWVDNDTRYRQFLCNVNDPALSDFRTNNRHCQCQ
Reply: 0.033
